- measurement-target: BRM (Homo sapiens)
- Construct: made in house; host or cells: High Five insect cells
- assay-method-text: ATPase catalytic activity of BRM, ADP-Glo in vitro biochemical assay
- particulars: ratio of BRG1 IC50 to BRM IC50
Each record is given Y if its reported Ratio* is strictly below 10. Records at or above 10 are given N.

Task item: Bench note: check whether `C[C@@H]1CN(c2cccc(-c3ccc4cnc(CNC(=O)c5cc(Cl)c6c(c5)S(=O)(=O)[C@H](C)COC6)cc4n3)n2)C[C@H](C)O1` shows Ratio* below 10
Reply: Y

Task item: Bench note: check whether `COc1ccc2c(c1)CCN2c1ccc2cnc(CNC(=O)c3ccc4c(c3)S(=O)(=O)CCOC4)cc2n1` shows Ratio* below 10
Reply: Y

Task item: Bench note: check whether `C[C@@H]1CN(c2cccc(-c3ccc4cnc(CNC(=O)c5ccc6c(c5)S(=O)(=O)CCCN6C)cc4n3)n2)C[C@H](C)O1` shows Ratio* below 10
Reply: N

Task item: Bench note: check whether `O=C(NCc1cc2nc(N3CCOc4cccnc43)ccc2cn1)c1ccc2c(c1)S(=O)(=O)CCOC2` shows Ratio* below 10
Reply: N

Task item: Bench note: check whether `C[C@@H]1CN(c2cccc(-c3ccc4cnc(CNC(=O)c5cc(Cl)c6c(c5)S(=O)(=O)CCOC6)cc4n3)n2)C[C@H](C)O1` shows Ratio* below 10
Reply: N

Task item: Bench note: check whether `COC[C@H]1C[C@H]1c1cccc(-c2ccc3cnc(CNC(=O)c4ccc5c(c4)S(=O)(=O)CCOC5)cc3n2)n1` shows Ratio* below 10
Reply: Y

Task item: Bench note: check whether `Cc1cnc2c(c1)CCCN2c1ccc2cnc(CNC(=O)c3cc(F)c4c(c3)S(=O)(=O)CCOC4)cc2n1` shows Ratio* below 10
Reply: N

Task item: Bench note: check whether `C[C@@H]1CN(c2cccc(-c3ccc4cnc(CNC(=O)c5ccc6c(c5)S(=O)(=O)CC[C@@H]6C)cc4n3)n2)C[C@H](C)O1` shows Ratio* below 10
Reply: N

Task item: Bench note: check whether `O=C(NCc1cc2nc(N3CCCc4ccc(Cl)nc43)ccc2cn1)c1ccc2c(c1)S(=O)(=O)CCOC2` shows Ratio* below 10
Reply: Y

Task item: Bench note: check whether `O=C(NCc1cc2nc(-c3cncc(C4CC4)n3)ccc2cn1)c1cnc2c(c1)S(=O)(=O)CCCCC2` shows Ratio* below 10
Reply: N

Task item: Bench note: check whether `Cc1cnc2c(n1)CCCN2c1ccc2cnc(CNC(=O)c3ccc4c(c3)S(=O)(=O)CCOC4)cc2n1` shows Ratio* below 10
Reply: N

Task item: Bench note: check whether `CCN(CC1COC1)c1cccc(-c2ccc3cnc(CNC(=O)c4ccc5c(c4)S(=O)(=O)CCOC5)cc3n2)n1` shows Ratio* below 10
Reply: N

Task item: Bench note: check whether `C[C@@H]1CN(c2nccc(-c3ccc4cnc(CNC(=O)c5ccc6c(c5)S(=O)(=O)[C@@H](C)COC6)cc4n3)c2F)C[C@H](C)O1` shows Ratio* below 10
Reply: N

Task item: Bench note: check whether `C[C@@H](C1COC1)N(C)c1cccc(-c2ccc3cnc(CNC(=O)c4ccc5c(c4)S(=O)(=O)CCOC5)cc3n2)n1` shows Ratio* below 10
Reply: Y

Task item: Bench note: check whether `CN1CCCCc2ccc(-c3ccc4cnc(CNC(=O)c5ccc6c(c5)S(=O)(=O)CCOC6)cc4n3)nc21` shows Ratio* below 10
Reply: Y

Task item: Bench note: check whether `CO[C@@H]1C[C@@H]1N(C)c1cccc(-c2ccc3cnc(CNC(=O)c4ccc5c(c4)S(=O)(=O)[C@@H](C)COC5)cc3n2)n1` shows Ratio* below 10
Reply: Y

Task item: Bench note: check whether O=C(NCc1cc2nc(-c3cccc(C4CCOC4)n3)ccc2cn1)c1ccc2c(c1)S(=O)(=O)CCOC2 (stereo not drawn) shows Ratio* below 10
Reply: Y

Task item: Bench note: check whether `C[C@]1(F)CCCN(c2cccc(-c3ccc4cnc(CNC(=O)c5ccc6c(c5)S(=O)(=O)CCOC6)cc4n3)n2)C1` shows Ratio* below 10
Reply: Y

Task item: Bench note: check whether `O=C(NCc1cc2nc(N3CCOc4cc(Cl)cnc43)ccc2cn1)c1ccc2c(c1)S(=O)(=O)CCOC2` shows Ratio* below 10
Reply: N

Task item: Bench note: check whether `CC(F)(F)CN1CCOc2c(-c3ccc4cnc(CNC(=O)c5ccc6c(c5)S(=O)(=O)CCOC6)cc4n3)cccc21` shows Ratio* below 10
Reply: Y

Task item: Bench note: check whether `O=C(NCc1cc2nc(-c3cccc(OCC4CCC4)n3)ccc2cn1)c1ccc2c(c1)S(=O)(=O)CCOC2` shows Ratio* below 10
Reply: N

Task item: Bench note: check whether `Cc1cc(C(=O)NCc2cc3nc(-c4cccc(N5C[C@@H](C)O[C@@H](C)C5)n4)ccc3cn2)cc2c1COCCS2(=O)=O` shows Ratio* below 10
Reply: N

Task item: Bench note: check whether `COc1ccc2c(c1)OCCN2c1ccc2cnc(CNC(=O)c3ccc4c(c3)S(=O)(=O)CCOC4)cc2n1` shows Ratio* below 10
Reply: Y

Task item: Bench note: check whether `C[C@H](C1COC1)N(C)c1cccc(-c2ccc3cnc(CNC(=O)c4ccc5c(c4)S(=O)(=O)CCOC5)cc3n2)n1` shows Ratio* below 10
Reply: N

Task item: Bench note: check whether `CO[C@H]1C[C@H]1N(C)c1cccc(-c2ccc3cnc(CNC(=O)c4ccc5c(c4)S(=O)(=O)[C@@H](C)COC5)cc3n2)n1` shows Ratio* below 10
Reply: N

Task item: Bench note: check whether `COc1cc(C(C)(F)F)ccc1-c1ccc2cnc(CNC(=O)c3ccc4c(c3)S(=O)(=O)CCOC4)cc2n1` shows Ratio* below 10
Reply: N

Task item: Bench note: check whether `COCc1nc2c(cc1Cl)CCCN2c1ccc2cnc(CNC(=O)c3ccc4c(c3)S(=O)(=O)CCOC4)cc2n1` shows Ratio* below 10
Reply: N

----------
- measurement-target: BRM (Homo sapiens, UniProt P51531)
- Construct: made in house; host or cells: High Five insect cells
- Sequence (P51531 whole entry): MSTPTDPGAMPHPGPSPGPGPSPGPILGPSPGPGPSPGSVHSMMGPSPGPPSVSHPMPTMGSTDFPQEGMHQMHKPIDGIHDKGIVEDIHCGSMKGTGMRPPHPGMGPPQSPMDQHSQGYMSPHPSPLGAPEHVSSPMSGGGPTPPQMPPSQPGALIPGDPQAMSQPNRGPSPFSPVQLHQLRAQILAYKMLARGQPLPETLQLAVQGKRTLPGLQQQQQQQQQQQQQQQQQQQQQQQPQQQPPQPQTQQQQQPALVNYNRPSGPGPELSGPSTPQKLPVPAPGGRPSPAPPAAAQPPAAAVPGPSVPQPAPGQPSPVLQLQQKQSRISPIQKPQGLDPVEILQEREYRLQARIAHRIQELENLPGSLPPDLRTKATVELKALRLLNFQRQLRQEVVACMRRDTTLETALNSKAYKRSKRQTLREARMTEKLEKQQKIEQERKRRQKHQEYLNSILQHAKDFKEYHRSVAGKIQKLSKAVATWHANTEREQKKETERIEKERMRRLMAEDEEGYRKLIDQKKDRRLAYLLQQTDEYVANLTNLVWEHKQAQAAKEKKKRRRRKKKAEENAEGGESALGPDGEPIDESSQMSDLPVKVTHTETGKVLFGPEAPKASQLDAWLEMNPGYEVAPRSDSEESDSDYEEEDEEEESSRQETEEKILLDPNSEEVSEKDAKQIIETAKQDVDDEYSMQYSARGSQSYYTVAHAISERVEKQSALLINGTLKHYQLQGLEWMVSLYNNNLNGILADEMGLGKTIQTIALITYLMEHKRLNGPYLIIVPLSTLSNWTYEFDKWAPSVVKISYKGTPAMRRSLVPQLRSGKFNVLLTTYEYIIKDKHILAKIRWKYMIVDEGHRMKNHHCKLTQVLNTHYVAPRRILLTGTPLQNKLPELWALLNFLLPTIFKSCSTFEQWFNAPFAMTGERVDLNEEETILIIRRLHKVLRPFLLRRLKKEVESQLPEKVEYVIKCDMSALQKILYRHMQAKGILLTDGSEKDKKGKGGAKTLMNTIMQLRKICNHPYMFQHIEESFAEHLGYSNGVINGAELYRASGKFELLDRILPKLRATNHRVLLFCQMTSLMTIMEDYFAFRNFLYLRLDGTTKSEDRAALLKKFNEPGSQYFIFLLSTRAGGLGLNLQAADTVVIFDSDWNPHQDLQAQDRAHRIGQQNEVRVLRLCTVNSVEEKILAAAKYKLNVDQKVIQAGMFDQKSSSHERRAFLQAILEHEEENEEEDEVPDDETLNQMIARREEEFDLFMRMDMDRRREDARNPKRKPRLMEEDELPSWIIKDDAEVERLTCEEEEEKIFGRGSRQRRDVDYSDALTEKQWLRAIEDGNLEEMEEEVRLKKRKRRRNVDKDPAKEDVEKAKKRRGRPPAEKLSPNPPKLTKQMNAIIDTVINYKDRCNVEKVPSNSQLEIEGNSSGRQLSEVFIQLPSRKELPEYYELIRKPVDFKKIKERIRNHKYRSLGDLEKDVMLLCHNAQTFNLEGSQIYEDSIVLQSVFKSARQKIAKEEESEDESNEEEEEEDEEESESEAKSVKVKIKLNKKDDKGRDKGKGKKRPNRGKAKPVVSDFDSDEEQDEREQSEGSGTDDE
- assay-method-text: ATPase catalytic activity of BRM, ADP-Glo in vitro biochemical assay
- particulars: ATPase catalytic activity, ADP-Glo; 30 nM BRM, 400 μM ATP
Would you kindly list pIC50 for each of these molecules?
pIC50 field: float, defined as -log10 of concentration (mol/L).

Task item: Data request, read-out pIC50, for COC[C@@H]1CCc2ccc(-c3ccc4cnc(CNC(=O)c5ccc6c(c5)S(=O)(=O)CCOC6)cc4n3)nc2N1C [Compound 476]
Reply: 8.43

Task item: Data request, read-out pIC50, for Cn1cnc2c1CCCN2c1ccc2cnc(CNC(=O)c3ccc4c(c3)S(=O)(=O)CCOC4)cc2n1 [Compound 688]
Reply: 6.59

Task item: Data request, read-out pIC50, for O=C(NCc1cc2nc(N3CCCc4ccc(F)nc43)ccc2cn1)c1ccc2c(c1)S(=O)(=O)CCOC2 [Compound 603]
Reply: 7.97

Task item: Data request, read-out pIC50, for C[C@H]1CCN(C)c2nc(-c3ccc4cnc(CNC(=O)c5ccc6c(c5)S(=O)(=O)CCOC6)cc4n3)ccc21 [Compound 694]
Reply: 7.47

Task item: Data request, read-out pIC50, for C[C@@H](C1COC1)N(C)c1cccc(-c2ccc3cnc(CNC(=O)c4ccc5c(c4)S(=O)(=O)CCOC5)cc3n2)n1 [Compound 471]
Reply: 6.78

----------
- measurement-target: BRM (Homo sapiens)
- Construct: made in house; host or cells: High Five insect cells
- assay-method-text: ATPase catalytic activity of BRM, ADP-Glo in vitro biochemical assay
- particulars: selectivity ratio BRG1 IC50 / BRM IC50
Would you kindly list Ratio* (BRG1 IC50 (μM) divided by BRM IC50 (μM)) for each of these compounds?
Answer with a bare number; do not write a unit.

Task item: Data request, read-out Ratio* (BRG1 IC50 (μM) divided by BRM IC50 (μM)), for N=S1(=O)CCOCc2ccc(C(=O)NCc3cc4nc(-c5cncc(C6CC6)n5)ccc4cn3)cc21 (centres unmarked) [Compound 286]
Reply: 13.91

Task item: Data request, read-out Ratio* (BRG1 IC50 (μM) divided by BRM IC50 (μM)), for CO[C@H]1C[C@H](N(C)c2cccc(-c3ccc4cnc(CNC(=O)c5ccc6c(c5)S(=O)(=O)CCOC6)cc4n3)n2)C1 [Compound 42]
Reply: 7.37

Task item: Data request, read-out Ratio* (BRG1 IC50 (μM) divided by BRM IC50 (μM)), for C[C@@H]1CN(c2cccc(-c3ccc4cnc(CNC(=O)c5ccc6c(c5)S(=O)(=O)CCOC6)cc4n3)n2)C[C@@H](C)O1 [Compound 215]
Reply: 9.47

Task item: Data request, read-out Ratio* (BRG1 IC50 (μM) divided by BRM IC50 (μM)), for CS(=O)(=O)c1cc(C(=O)NCc2cc3nc(-c4cccc(N5CC[C@H]6OCC[C@@H]6C5)n4)ccc3cn2)ccc1Cl [Compound 98]
Reply: 7.80

Task item: Data request, read-out Ratio* (BRG1 IC50 (μM) divided by BRM IC50 (μM)), for O=C(NCc1cc2nc(-c3cncc(C4CC4)n3)ccc2cn1)c1cc(F)c2c(c1)S(=O)(=O)CCOC2 [Compound 287]
Reply: 24.53

Task item: Data request, read-out Ratio* (BRG1 IC50 (μM) divided by BRM IC50 (μM)), for CC(F)(F)COc1cccc(-c2ccc3cnc(CNC(=O)c4ccc5c(c4)S(=O)(=O)CCOC5)cc3n2)n1 [Compound 126]
Reply: 8.80

Task item: Data request, read-out Ratio* (BRG1 IC50 (μM) divided by BRM IC50 (μM)), for O=C(NCc1cc2nc(-c3cncc(C4CC4)n3)ccc2cn1)c1ccc2c(c1)S(=O)(=O)NCCC2 [Compound 293]
Reply: 10.84

Task item: Data request, read-out Ratio* (BRG1 IC50 (μM) divided by BRM IC50 (μM)), for Cc1cc2ccc(-c3ccc4cnc(CNC(=O)c5ccc6c(c5)S(=O)(=O)CCOC6)cc4n3)nc2n1C [Compound 85]
Reply: 8.19

Task item: Data request, read-out Ratio* (BRG1 IC50 (μM) divided by BRM IC50 (μM)), for CO[C@H]1CCCN(c2cccc(-c3ccc4cnc(CNC(=O)c5ccc6c(c5)S(=O)(=O)CCOC6)cc4n3)n2)C1 [Compound 93]
Reply: 9.74

Task item: Data request, read-out Ratio* (BRG1 IC50 (μM) divided by BRM IC50 (μM)), for CO[C@@H]1CCN(c2cccc(-c3ccc4cnc(CNC(=O)c5ccc6c(c5)S(=O)(=O)CCOC6)cc4n3)n2)C1 [Compound 200]
Reply: 7.31

Task item: Data request, read-out Ratio* (BRG1 IC50 (μM) divided by BRM IC50 (μM)), for O=C(NCc1cc2nc(-c3cccc([C@@H]4CC4(F)F)c3)ccc2cn1)c1ccc2c(c1)S(=O)(=O)CCOC2 [Compound 251]
Reply: 9.69

Task item: Data request, read-out Ratio* (BRG1 IC50 (μM) divided by BRM IC50 (μM)), for CS(=O)(=O)c1cc(C(=O)NCc2cc3nc(-c4cncc(C5CC5)n4)ccc3cn2)ccc1F [Compound 292]
Reply: 7.50

Task item: Data request, read-out Ratio* (BRG1 IC50 (μM) divided by BRM IC50 (μM)), for O=C(NCc1cc2nc(N3CCCc4cnccc43)ccc2cn1)c1ccc2c(c1)S(=O)(=O)CCOC2 [Compound 90]
Reply: 12.89

Task item: Data request, read-out Ratio* (BRG1 IC50 (μM) divided by BRM IC50 (μM)), for COCCN(C)c1cccc(-c2ccc3cnc(CNC(=O)c4ccc(Cl)c(S(C)(=O)=O)c4)cc3n2)n1 [Compound 97]
Reply: 15.97
